Target sequence: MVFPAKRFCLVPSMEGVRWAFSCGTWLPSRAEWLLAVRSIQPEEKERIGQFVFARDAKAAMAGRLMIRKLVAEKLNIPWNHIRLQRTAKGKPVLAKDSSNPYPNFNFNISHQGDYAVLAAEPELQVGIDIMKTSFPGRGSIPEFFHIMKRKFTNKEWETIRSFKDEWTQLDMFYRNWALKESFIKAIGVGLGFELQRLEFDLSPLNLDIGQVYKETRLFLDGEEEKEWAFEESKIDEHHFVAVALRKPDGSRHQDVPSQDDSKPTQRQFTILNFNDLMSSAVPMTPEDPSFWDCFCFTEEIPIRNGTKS
Where a name gives a salt, the structure may show the parent alone.
Provide the reported IC50 of each item.

Example entries and their recorded answers appear below.
NC(CO)C(=O)NNCc1ccc(O)c(O)c1O (stereo not drawn) [benserazide HCl, benserazide]: > 100 µM
C[n+]1cc2c3c(ccc2c2ccc4cc5c(cc4c21)OCO5)OCO3: > 100 µM

Now, please, on to the next compound.
# input Give the measured IC50 for CC(C)(COP(=O)(O)OP(=O)(O)OC[C@H]1O[C@@H](n2cnc3c(N)ncnc32)[C@H](O)[C@@H]1OP(=O)(O)O)[C@@H](O)C(=O)NCCC(=O)NCCS
# output 14 µM
